assay: Cell Viability - LYMP2-025 (AID 976); conditions: LYMP2-025 lymphoblastoid cell viability; series mostly up to 92.2 µM;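 note: cells exposed to compound for 24 h at 37 °C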
Inconclusive results are not listed. Activity calls are given as the source filed them. Calls come from the whole dose curve; as a rule, active = well fitted cell-killing curve with a large enough effect; inconclusive = small, poorly fitted or top-dose-only effect; inactive = flat fitted curve, though single readings scatter.
Labels: active, inactive

[
  {
    "Compound": "COc1cccc2c1C(=O)c1c(O)c3c(c(O)c1C2=O)C[C@@](O)(C(=O)CO)C[C@@H]3O[C@H]1C[C@H](N)[C@H](O)[C@H](C)O1",
    "Cat": "active"
  },
  {
    "Compound": "Oc1c(I)cc(Cl)c2cccnc12",
    "Cat": "inactive"
  },
  {
    "Compound": "CN(C)/N=N/c1nc[nH]c1C(N)=O",
    "Cat": "inactive"
  },
  {
    "Compound": "CC(=O)Oc1ccc(C(c2ccc(OC(C)=O)cc2)c2ccccn2)cc1",
    "Cat": "inactive"
  },
  {
    "Compound": "COC1=CC(=O)C[C@@H](C)[C@]12Oc1c(Cl)c(OC)cc(OC)c1C2=O",
    "Cat": "inactive"
  },
  {
    "Compound": "C[C@]12CC[C@@H]3c4ccc(O)cc4CC[C@H]3[C@@H]1CC[C@@H]2O",
    "Cat": "inactive"
  },
  {
    "Compound": "Oc1ccc(O)cc1",
    "Cat": "inactive"
  },
  {
    "Compound": "CCCCCCc1ccc(O)cc1O",
    "Cat": "inactive"
  },
  {
    "Compound": "CC(O)C(=O)O (centres undefined)",
    "Cat": "inactive"
  }
]
